Test system: Malme-3M
Test: NCI tumour cell line growth inhibition, 48 h
Active and inactive are the calls of the source. Rule as the data show it: active = GI50 up to about 1.1 µM and inactive = higher.
Reported GI50 values for a set of molecules
ASSAY READOUT: GI50

1) CSC(=N)NNC(=O)CCC(=O)Nc1ccccc1C(F)(F)F :: > 100 µM (inactive)
2) CCN(CC)Cc1ccc2cccnc2c1O :: 2.81 µM (inactive)
3) OC1(c2ccc(Cl)cc2)C(N2CCCC2)c2ccccc2C2=NCCN21 (stereo not drawn) :: 18.5 µM (inactive)
4) O=C1C(Cl)=C(NCCCN2CCOCC2)C(=O)c2c(O)ccc(O)c21 :: 1.91 µM (inactive)
5) COCCN(CCOC)C(=O)COc1c2cc(C(C)(C)C)cc1Cc1cc(C(C)(C)C)cc(c1OCC(=O)N(CCOC)CCOC)Cc1cc(C(C)(C)C)cc(c1OCC(=O)N(CCOC)CCOC)Cc1cc(C(C)(C)C)cc(c1OCC(=O)N(CCOC)CCOC)Cc1cc(C(C)(C)C)cc(c1OCC(=O)N(CCOC)CCOC)C2 :: 1.85 µM (inactive)
6) O=C(NCC(=O)N1CCCC1C(=O)OC(=O)C1CCCN1C(=O)CNC(=O)OCc1ccccc1)OCc1ccccc1 (stereo not drawn) :: 19.1 µM (inactive)
7) COc1cc(/C=C\c2ccccn2)cc(OC)c1OC :: > 100 µM (inactive)
8) Cc1c(O)c(OC2OC(CO)C(O)C(O)C2O)cc2c1CC[C@@H]1C2(C)C(=O)C[C@]2(C)[C@@H]([C@@](C)(O)C(O)/C=C/C(C)(C)O)[C@H](O)C[C@@]12C (stereo partly drawn) :: > 100 µM (inactive)

====

Test system: UACC-257
Assay: NCI tumour cell line growth inhibition, 48 h
The source made the active and inactive calls. No stated cut-off is given here; in the data, active = GI50 up to about 1.1 µM and inactive = higher.
Possible outcomes: active, inactive

1) Cc1cc2c(cc1Cl)SC(c1ccccc1O)NS2(=O)=O (stereo not given) :: inactive
2) CCOC(=O)C(Cc1c[nH]c2cc([N+](=O)[O-])ccc12)NS(=O)(=O)c1ccc2ccccc2c1 (stereo not given) :: inactive
3) C=C[C@@]1(C)CC(=O)[C@]2(O)[C@@]3(C)[C@@H](OC(C)=O)CCC(C)(C)[C@@H]3[C@H](OC(C)=O)[C@H](OC(C)=O)[C@@]2(C)O1 :: inactive
4) COc1cc(C2c3cc4c(cc3OC(N3CCCCC3)C2C)OCO4)cc(OC)c1OC (stereo not given) :: inactive
5) N/N=C(\Nc1ccccc1)SCc1ccccc1 :: inactive
6) C/C(=N/NC(=S)N(Cc1ccccn1)Cc1ccccn1)c1cnccn1 :: active
7) CCN(CC)CCn1nc(N)c2nc3ccccc3nc21 :: inactive
8) S=C(N/N=C(\C(=N/NC(=S)N1CCCCC1)c1ccccn1)c1ccccn1)N1CCCCC1 :: inactive
9) CCCCc1c2c(nc3c1CCC/C3=C\c1ccccc1)/C(=C/c1ccccc1)CCC2 :: inactive
10) CCCCCCC(/C=N/O)C(C)(O)CCC (stereo not given) :: inactive

====

System: SK-MEL-2
Assay: NCI tumour cell line growth inhibition, 48 h
The source made the active and inactive calls. Rule as the data show it: active = GI50 up to about 1.1 µM and inactive = higher. Square brackets hold non-standard residues; d marks the D form. Peptide text beside a SMILES is read from it. * marks the point of attachment. Boc = CC(C)(C)OC(=O)*; OBn = c1ccc(CO*)cc1
Classes used: active, inactive

1) O=C(/N=N/c1ccc([N+](=O)[O-])cc1)NNc1ccc([N+](=O)[O-])cc1 :: inactive
2) C[C@H]1CC[C@@H]2[C@@H](C)[C@H]3[C@H](C[C@H]4[C@@H]5CC=C6C[C@@H](O)CC[C@]6(C)[C@H]5C[C@H](O)[C@]34C)N2C1 :: inactive
3) CCOC(=O)C1(C)C2=CC=C(O2)C(C)(C)C2=CC=C(O2)C(C)(C)C2=CC=C(O2)C(C)(C)C2=CC=C1O2 :: inactive
4) CC(=O)OC1OC(c2ccoc2)C[C@@]12C1CCC3O[C@]3(C)[C@]1(C)C[C@H](OC(C)=O)[C@H]2C (stereo partly specified) :: inactive
5) Cc1cc(C)nc(NS(=O)(=O)c2ccc(NC(=O)c3c4ccccc4nc4ccccc34)cc2)n1 :: inactive
6) C[C@@H](NC(=O)CNC(=O)OC(C)(C)C)C(=O)N[C@@H](Cc1ccccc1)C(=O)OCc1ccccc1 (Boc-Gly-[dA]-Phe-OBn) :: inactive
7) Cc1nc2c(O)cc3c4c(n(Cc5ccccc5)c3c2nc1C)C(=O)CCC4 :: inactive
8) COc1cc(C(C#N)NNC(=O)c2ccccc2O)ccc1O (stereo unspecified) :: inactive
9) Cn1cc(NC(=O)c2cc(NC(=O)c3cc(NC=O)cn3C)cn2C)cc1C(=O)NCCC(=N)N [STALLIMYCIN] :: inactive
10) C1CCCCC2(CCCCCCCCC3(CCC1)SCCS3)SCCS2 :: inactive
11) CN(C(=O)c1ccc2c(c1)sc1c(=O)n(C)c3ccccc3c12)c1ccccc1 :: inactive
12) O=CN1CCN(C(=O)c2ccc(Cl)cc2)C1=S :: inactive
13) Cn1cc(NC(=O)c2cc(NC(=O)CCCCCCCCC(=O)Nc3cc(C(=O)Nc4cc(C(=O)NCCC(N)N)n(C)c4)n(C)c3)cn2C)cc1C(=O)NCCC(=N)N :: inactive
14) CC(C)(C)OC(=O)[C@@H]1ON2O[C@H](OC3CCCC3(c3ccccc3)c3ccccc3)C[C@H]3OC(=O)[C@@H]1[C@H]32 (stereo partly specified) :: inactive
15) O=[N+]([O-])c1ccc(CN(CCCl)OCCCl)cc1 :: inactive
16) C[C@H]1C/C=C/[C@H]2[C@@H]3O[C@]3(C)[C@@H](C)[C@H]3[C@H](Cc4ccccc4)NC(=O)[C@]32OC(=O)O/C=C/[C@@](C)(O)C1=O [CYTOCHALASIN E] :: active
